- ASSAYED SYSTEM: T1, human neuropeptide Y2 receptor (human, UniProt P49146 1-381)
- T1 sequence (looked up): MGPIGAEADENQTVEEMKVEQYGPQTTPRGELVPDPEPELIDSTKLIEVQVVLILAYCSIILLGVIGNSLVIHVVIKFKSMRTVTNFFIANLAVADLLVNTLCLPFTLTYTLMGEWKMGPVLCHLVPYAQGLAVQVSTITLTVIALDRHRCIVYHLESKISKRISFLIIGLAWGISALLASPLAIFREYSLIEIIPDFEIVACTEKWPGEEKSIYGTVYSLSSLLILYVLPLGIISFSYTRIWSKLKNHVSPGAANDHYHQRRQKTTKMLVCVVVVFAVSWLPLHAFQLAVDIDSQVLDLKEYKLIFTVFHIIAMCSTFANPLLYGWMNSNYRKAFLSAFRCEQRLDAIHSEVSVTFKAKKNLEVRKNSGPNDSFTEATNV
- TEST METHOD NOTES: cell-based or functional assay
*1 amine or outer side, *2 acyl side, *3 side chain or, on linkers, in order; H or OH if unused. Where no end group is shown, it is not given here. Side-chain parts run from the residue outwards. [ ]: non-standard residue; d: D form. The star is where a group is joined. C18 diacid = O=C(O)CCCCCCCCCCCCCCCCC(=O)*; γGlu = O=C(O)[C@H](CCC(=O)[*:2])N[*:1]; εLys = N[C@@H](CCCCN[*:1])C(=O)[*:2]; Aib = CC(C)(N)C(=O)O
Attribute: EC50, CreLuc reporter, 0.5% hP
RECORDED ENDPOINT: EC50, CreLuc reporter, 0.5% hP (nM)

>  <BINDER>
YXEGTFTSDYSIXLEKQAQXAFVRHLINKLTRQRY (Aib at 2, 13, 20; Lys29 epsilon-amino: C18DA-gGlu-gGlu-gGlu-gGlu-gGlu-gGlu-eLys; C-terminal amide) [Compound 127]

>  <REPORTED RESULT>
10.3

$$$$
>  <BINDER>
YXEGTFTSDYSIXLEKQAQYAFVRHLINKXTRQRY (Aib at 2, 13, 30; Lys29 epsilon-amino: C18DA-gGlu-gGlu-gGlu-gGlu-gGlu-gGlu-eLys; C-terminal amide) [Compound 151]

>  <REPORTED RESULT>
32.6

$$$$
>  <BINDER>
Y[Aib]EGTFTSDYSI[Aib]LDEQAQ[Aib]AFVRHLINK([εLys-γGlu-γGlu-γGlu-γGlu-γGlu-C18 diacid])[Aib]TRQRY-NH2 [Compound 108]

>  <REPORTED RESULT>
20.3

$$$$
>  <BINDER>
YXEGTFTSDYSIXLEKQAQEAFVRHLINKXTRQRY (Aib at 2, 13, 30; Lys29 epsilon-amino: C18DA-gGlu-gGlu-gGlu-gGlu-gGlu-gGlu-eLys; C-terminal amide) [Compound 170]

>  <REPORTED RESULT>
43.8

$$$$
>  <BINDER>
YXEGTFTSDYSILLEKQAQXAFVRHLINKXTRQRY (Aib at 2, 20, 30; Lys29 epsilon-amino: C18DA-gGlu-gGlu-gGlu-gGlu-gGlu; C-terminal amide) [Compound 122]

>  <REPORTED RESULT>
60.8

$$$$
>  <BINDER>
YXEGTFTSDYSIXLEKQAQXAFVRHLINKXTRQXY (Aib at 2, 13, 20, 30; dOR at 34; Lys29 epsilon-amino: C18DA-gGlu-gGlu-gGlu-gGlu-gGlu; C-terminal amide) [Compound 96]

>  <REPORTED RESULT>
23

$$$$
